Every entry's value here was drawn from ChEMBL document CHEMBL5150013.

test.description: in vivo
experimental.context: C3H, mouse, iv, 10 mg/kg

>  <smiles.data>
CN([11CH3])CCc1ccccc1

>  <tissue uptake at 1 min, %ID/g>
7.9

$$$$

###

test.description: in vivo
experimental.context: C3H, mouse, iv, 10 mg/kg

>  <smiles.data>
CN([11CH3])CCc1ccccc1

>  <tissue uptake at 1 h, %ID/g>
2.8

$$$$

###

tested.system: 3',5'-cyclic-AMP phosphodiesterase 4D (Homo sapiens, UniProt Q08499)
Sequence (Q08499 whole entry): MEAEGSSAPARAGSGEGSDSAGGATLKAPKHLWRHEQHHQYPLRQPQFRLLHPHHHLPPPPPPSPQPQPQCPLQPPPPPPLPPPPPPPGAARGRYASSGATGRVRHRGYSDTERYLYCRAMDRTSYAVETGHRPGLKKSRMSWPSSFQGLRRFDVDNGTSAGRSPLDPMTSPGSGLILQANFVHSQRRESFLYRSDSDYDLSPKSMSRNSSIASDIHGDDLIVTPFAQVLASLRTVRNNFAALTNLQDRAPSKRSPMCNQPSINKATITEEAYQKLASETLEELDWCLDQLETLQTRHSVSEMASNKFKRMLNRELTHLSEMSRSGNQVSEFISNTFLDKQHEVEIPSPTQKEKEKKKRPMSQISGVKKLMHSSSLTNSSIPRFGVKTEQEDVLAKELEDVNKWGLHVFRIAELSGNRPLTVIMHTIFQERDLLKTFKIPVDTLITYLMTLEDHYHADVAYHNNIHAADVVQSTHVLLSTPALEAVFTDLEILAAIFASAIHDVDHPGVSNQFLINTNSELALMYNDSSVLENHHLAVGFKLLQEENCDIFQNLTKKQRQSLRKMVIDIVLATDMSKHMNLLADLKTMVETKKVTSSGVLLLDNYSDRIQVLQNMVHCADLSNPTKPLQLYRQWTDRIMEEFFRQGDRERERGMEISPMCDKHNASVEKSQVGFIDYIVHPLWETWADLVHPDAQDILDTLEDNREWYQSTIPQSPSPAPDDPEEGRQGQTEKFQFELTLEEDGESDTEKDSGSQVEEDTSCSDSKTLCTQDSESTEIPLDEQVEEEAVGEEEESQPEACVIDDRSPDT

>  <smiles.data>
[11CH3]n1cc(Cc2ccc(OCF)c(-c3cccc(Cl)c3)n2)cn1

>  <IC50 [nM]>
0.5

$$$$
